Biological target: UniProtKB P39900
Sequence (P39900 whole entry): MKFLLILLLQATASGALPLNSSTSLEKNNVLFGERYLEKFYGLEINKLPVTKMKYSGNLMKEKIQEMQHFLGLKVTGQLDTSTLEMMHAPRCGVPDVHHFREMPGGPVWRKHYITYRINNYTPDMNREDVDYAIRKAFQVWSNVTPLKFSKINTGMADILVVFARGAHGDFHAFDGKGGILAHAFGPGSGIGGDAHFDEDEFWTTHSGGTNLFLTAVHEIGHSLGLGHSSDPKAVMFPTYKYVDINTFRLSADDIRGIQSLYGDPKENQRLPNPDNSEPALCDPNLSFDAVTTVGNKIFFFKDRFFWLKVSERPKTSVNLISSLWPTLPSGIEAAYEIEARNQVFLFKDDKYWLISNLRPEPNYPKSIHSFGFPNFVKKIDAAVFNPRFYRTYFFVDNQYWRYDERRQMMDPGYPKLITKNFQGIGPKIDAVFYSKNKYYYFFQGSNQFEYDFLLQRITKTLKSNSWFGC
Test: Inhibition of human recombinant MMP12 using MOCAc-Lys-Pro-Leu-Gly-Leu-A2pr(Dnp)-Ala-Arg-N2 as substrate preincubated for 15 mins followed by substrate addition and measured after 120 mins by fluorescence based assay
measured attribute: pKi
For clarity, pKi is expressed as the negative log10 of concentration in mol/L.

Ask: Item CC(C)C[C@H](NC(=O)[C@@H]1C[C@H](N)CN1C(=O)CC[C@@H](NS(=O)(=O)c1ccc(NC(=O)c2ccc(C(N)=O)cc2)cc1)C(=O)O)C(=O)N(C)[C@@H](CCC(=O)O)C(=O)NCCCCC(N)=O has what recorded pKi?
Reply: 6.77
